B1: ZNF449 (parent)
chain: QLTGHQRIHSGEEPHKCPECGKRF

Variants of: B1
Assay: protein stability index of a GFP-peptide fusion (GPS, HEK-293T) (PSI 1-6); higher = more stable;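 also: lentivirally expressed fusions sorted by FACS into six bins by GFP to DsRed ratio, PSI derived from sequencing read proportions per bin multiplied by bin number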
Settings: c terminus: a fixed tail appended
protein stability index: recorded values
experimental_readout: protein stability index

• S10M = 3.36
• E19P = 4.23
• E13P = 4.1
• F24Q = 4.62
• P14E = 4.09
• P14N = 4.49
• Q1T = 4.31
• G4A = 4.34
• F24L = 4.64
• R7F = 3.33
• G21P = 4.7
